System: HCV replicon, genotype-1a variant with glutamine 30 changed to glutamate in the NS5A protein
Assay: microbe, parasite or virus in culture
Format: cell-based, HCV genotype 1a
Details: HCV replicon genotype 1a Q30E (Q→E) variant; test compound titrated with an NS5A-targeting compound (BMS-790052 fixed at 200 nM); ranking of synergist activity
Description: The NS5A synergistic inhibitory effect of test compounds can be determined using various amounts of an NS5A-targeting compound with titration of a second compound of interest. […] In one embodiment, the HCV genotype strain can be genotype 1a containing a change at amino acid 30 of the NS5A protein consisting of glutamine to glutamate. The test compound can be chosen from compounds listed above or from others present in the literature.
Endpoint name: Fold-Synergistic 1a (Q30E)

Quick one: Fold-Synergistic 1a (Q30E) of Cn1cccc1C(=O)N1CCC[C@H]1c1ncc(-c2ccc(-c3ccc(-c4cnc([C@@H]5CCCN5C(=O)c5cccn5C)[nH]4)cc3)cc2)[nH]1 [Compound S-175] ?
<10 fold

Quick one: Fold-Synergistic 1a (Q30E) of O=C(N1CCC[C@H]1c1ncc(-c2ccc(-c3ccc(-c4cnc([C@@H]5CCCN5C(=O)C5(O)CCC(F)(F)CC5)[nH]4)cc3)cc2)[nH]1)C1(O)CCC(F)(F)CC1 [Compound P-185] ?
>100 fold

Quick one: Fold-Synergistic 1a (Q30E) of C[C@@H]1CN(C(C)(C)C(=O)N[C@H](c2nc(-c3ccc(-c4ccc(-c5c[nH]c([C@@H](NC(=O)C(C)(C)N6C[C@@H](C)O[C@@H](C)C6)C6(C)CC6)n5)cc4)cc3)c[nH]2)C2(C)CC2)C[C@H](C)O1 [Compound W-162] ?
>100 fold

Quick one: Fold-Synergistic 1a (Q30E) of CC(C)(C(=O)N[C@H](c1nc(-c2ccc(-c3ccc(-c4c[nH]c([C@@H](NC(=O)C(C)(C)C(=O)N5CC[C@H](O)C5)C(C)(C)C)n4)cc3)cc2)c[nH]1)C(C)(C)C)C(=O)N1CC[C@H](O)C1 [Compound W-152] ?
>100 fold

Quick one: Fold-Synergistic 1a (Q30E) of CC1(C(=O)N[C@H](c2nc(-c3ccc(-c4ccc(-c5c[nH]c([C@@H](NC(=O)C6(C)OCC7(CC7)CO6)C(C)(C)C)n5)cc4)cc3)c[nH]2)C(C)(C)C)OCC2(CC2)CO1 (stereo partly drawn) [Compound L-84] ?
>100 fold
